meta.source: patent EP4786492A1

# TARGET OF ASSAY: human DLL3 protein expressed on CHO-K1 recombinant cells (human DLL3 extracellular segment fused to EpCAM transmembrane and intracellular regions) (human) (UniProt Q9NYJ7)
# Sequence (Q9NYJ7 other isoform, or with tags, fused parts or gaps limits assumed): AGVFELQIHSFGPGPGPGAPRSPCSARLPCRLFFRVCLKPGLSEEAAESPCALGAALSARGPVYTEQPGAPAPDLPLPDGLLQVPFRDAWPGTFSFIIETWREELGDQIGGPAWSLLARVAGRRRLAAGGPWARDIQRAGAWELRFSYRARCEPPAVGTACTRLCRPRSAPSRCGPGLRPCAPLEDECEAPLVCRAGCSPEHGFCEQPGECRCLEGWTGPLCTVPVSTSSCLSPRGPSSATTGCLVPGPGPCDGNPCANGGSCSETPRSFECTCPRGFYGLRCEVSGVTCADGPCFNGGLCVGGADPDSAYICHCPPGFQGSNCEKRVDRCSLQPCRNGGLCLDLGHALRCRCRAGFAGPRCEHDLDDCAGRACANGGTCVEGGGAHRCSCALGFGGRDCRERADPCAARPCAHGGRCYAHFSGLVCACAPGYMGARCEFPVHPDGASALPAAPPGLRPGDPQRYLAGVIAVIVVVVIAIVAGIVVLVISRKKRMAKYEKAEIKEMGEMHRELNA
# TEST DETAILS: FACS, CHO-K1 hDLL3 cells, 0.8 nM antibody
ASSAY READOUT: MFI (MFI)
Give the value in MFI but do not write MFI after it.

BINDER	ASSAY READOUT	REPORTED MEASUREMENT
Hab014VL2VH1-hFc (scFv, part only; not given: scFv linker and human IgG1 Fc, V domains shown, not shown: another chain or arm of the molecule; a dimerising Fc or GST; small tags and cut ends) VL: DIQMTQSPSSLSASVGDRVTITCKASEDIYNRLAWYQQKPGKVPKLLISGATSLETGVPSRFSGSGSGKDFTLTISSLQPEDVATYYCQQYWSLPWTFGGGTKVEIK VH: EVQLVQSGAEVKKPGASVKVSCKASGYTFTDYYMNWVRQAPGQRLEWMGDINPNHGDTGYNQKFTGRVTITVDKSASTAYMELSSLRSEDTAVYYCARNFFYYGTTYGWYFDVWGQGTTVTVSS	MFI	8420
Hab006VL1VH4-hFc (scFv, part only; not given: VL-VH linker and human IgG1 Fc, V domains shown, not shown: another chain or arm of the molecule; a dimerising Fc or GST; small tags and cut ends) VL: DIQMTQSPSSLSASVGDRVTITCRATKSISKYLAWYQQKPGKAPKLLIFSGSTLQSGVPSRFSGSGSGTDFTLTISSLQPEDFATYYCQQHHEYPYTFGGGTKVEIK VH: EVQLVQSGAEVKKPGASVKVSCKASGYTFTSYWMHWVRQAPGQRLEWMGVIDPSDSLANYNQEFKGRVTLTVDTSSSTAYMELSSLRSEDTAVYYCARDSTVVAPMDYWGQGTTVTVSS	MFI	7270

Continue with the binder presented below.
For reference, reported MFI for Hab008L3H2a-hFc (scFv, part only; not given: VL-VH linker and human IgG1 Fc, V domains shown, not shown: another chain or arm of the molecule; a dimerising Fc or GST; small tags and cut ends) VL: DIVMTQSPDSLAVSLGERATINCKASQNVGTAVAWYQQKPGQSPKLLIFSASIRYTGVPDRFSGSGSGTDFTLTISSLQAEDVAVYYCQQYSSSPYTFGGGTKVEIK VH: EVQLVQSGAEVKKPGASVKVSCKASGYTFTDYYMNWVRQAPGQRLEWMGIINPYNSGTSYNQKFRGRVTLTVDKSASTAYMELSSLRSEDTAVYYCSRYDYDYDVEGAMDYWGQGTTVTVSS stands at 2700
